target.of.assay: RelSeq 1–385 (Streptococcus dysgalactiae subsp. equisimilis, UniProt Q54089)
Construct: His-tag (C); host or cells: BL21(DE3) Escherichia coli
Sequence (Q54089 1-385): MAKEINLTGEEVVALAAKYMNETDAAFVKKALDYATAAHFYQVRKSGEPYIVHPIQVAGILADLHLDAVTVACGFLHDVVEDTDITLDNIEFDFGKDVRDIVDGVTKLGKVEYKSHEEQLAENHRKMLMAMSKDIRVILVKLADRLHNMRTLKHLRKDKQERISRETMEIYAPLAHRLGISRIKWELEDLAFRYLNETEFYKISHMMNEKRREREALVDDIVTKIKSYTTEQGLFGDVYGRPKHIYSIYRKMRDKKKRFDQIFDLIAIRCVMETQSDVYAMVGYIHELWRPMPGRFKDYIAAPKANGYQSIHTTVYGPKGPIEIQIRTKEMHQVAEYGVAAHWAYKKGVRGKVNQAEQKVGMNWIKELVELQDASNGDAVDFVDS
experiment: Thermal shift assay on RelSeq 1–385
Format: binding, S. equisimilis
study.conditions: thermal shift assay, titration 0.3–10 mM, pH 8; read-out: Kd RelSeq 1–385
Description: Thermal shift is an experimental technique in which protein thermal denaturation is monitored following the increase in fluorescence reported by a protein-bound dye. In particular, an environment-sensitive hydrophobic dye (e.g., SYPRO Orange) binds to hydrophobic regions that become progressively exposed during thermal denaturation, resulting in an increase in its fluorescence emission. […]
measure.name: pKd
Scale note: pKd = -log10(concentration in M).

Query string: Specify pKd for Nc1ncnc2c1ncn2[C@@H]1O[C@H](COP(=O)(O)OP(=O)(O)OP(=O)(O)O)[C@@H](O)[C@H]1O [ATP, reference compound] and stop.
Result string: 3.31

====

Reported Kd is given for each of the following molecules.
target.of.assay: RelSeq 1–385 (Streptococcus dysgalactiae subsp. equisimilis, UniProt Q54089)
Construct: His-tag (C); host or cells: BL21(DE3) Escherichia coli
experiment: Thermal shift assay on RelSeq 1–385
Format: binding, S. equisimilis
Note: unit mM is implicit; provide only the numeric part.

Use these answered entries as a reference point.
[[record]]
molecule = "O=C(O)Cc1c[nH]c2ccc(F)cc12 [I4]"
measure_name = "Kd"
quantitative_readout = 3.2

[[record]]
molecule = "O=C(O)c1ccc2cc[nH]c2c1 [I1]"
measure_name = "Kd"
quantitative_readout = 6.5

[[record]]
molecule = "O=C(O)c1ccc2ocnc2c1 [BO1]"
measure_name = "Kd"
quantitative_readout = 2.2

[[record]]
molecule = "Nc1ccc(C(=O)O)c(Cl)c1 [A6]"
measure_name = "Kd"
quantitative_readout = 4.3


Kindly review the next molecule as well.
Query string: Specify Kd for COc1cc(C(=O)O)ccc1N [A7] and stop.
Result string: 4

====

target.of.assay: RelSeq 1–385 (Streptococcus dysgalactiae subsp. equisimilis)
Construct: His-tag (C); host or cells: BL21(DE3) Escherichia coli
experiment: Thermal shift assay on RelSeq 1–385
Assay type: binding, S. equisimilis
# note: exactly 3 mM is not below, so it is Not fulfilled; use Fulfilled for Kd strictly under it

See these solved cases before continuing.
[[record]]
molecule = "Nc1ccc(F)cc1C(=O)O [A3]"
target_of_assay = "RelSeq 1–385 (Streptococcus dysgalactiae subsp. equisimilis)"
class_name = "Fulfilled"

[[record]]
molecule = "O=C(O)c1cccc2[nH]ccc12 [I3]"
target_of_assay = "RelSeq 1–385 (Streptococcus dysgalactiae subsp. equisimilis)"
class_name = "Not fulfilled"

[[record]]
molecule = "O=C(O)c1ccc2[nH]ccc2c1 [I2]"
target_of_assay = "RelSeq 1–385 (Streptococcus dysgalactiae subsp. equisimilis)"
class_name = "Fulfilled"


Query string: Here's an entry: COc1ccc(C(=O)O)cc1N [A5] . Is its Kd below 3 mM?
Result string: Fulfilled

Query string: Here's an entry: CC(C)c1cc(C(=O)O)nc2ncnn12 [TP1] . Is its Kd below 3 mM?
Result string: Not fulfilled

Query string: Here's an entry: O=C(O)c1cccc2[nH]cnc12 [B3] . Is its Kd below 3 mM?
Result string: Not fulfilled

Query string: Here's an entry: Nc1ccccc1C(=O)O [A1] . Is its Kd below 3 mM?
Result string: Fulfilled

Query string: Here's an entry: Nc1cccc(C(=O)O)c1 [A4] . Is its Kd below 3 mM?
Result string: Not fulfilled

Where do the numbers come from? From paper PMC9143738.
